Recorded measurements of pKd, one per entry
# system_name: T1, EsCas13d, nuclease-dead (Eubacterium siraeum, UniProt B0MS50, R295A;H300A;R849A;H854A)
# T1 sequence: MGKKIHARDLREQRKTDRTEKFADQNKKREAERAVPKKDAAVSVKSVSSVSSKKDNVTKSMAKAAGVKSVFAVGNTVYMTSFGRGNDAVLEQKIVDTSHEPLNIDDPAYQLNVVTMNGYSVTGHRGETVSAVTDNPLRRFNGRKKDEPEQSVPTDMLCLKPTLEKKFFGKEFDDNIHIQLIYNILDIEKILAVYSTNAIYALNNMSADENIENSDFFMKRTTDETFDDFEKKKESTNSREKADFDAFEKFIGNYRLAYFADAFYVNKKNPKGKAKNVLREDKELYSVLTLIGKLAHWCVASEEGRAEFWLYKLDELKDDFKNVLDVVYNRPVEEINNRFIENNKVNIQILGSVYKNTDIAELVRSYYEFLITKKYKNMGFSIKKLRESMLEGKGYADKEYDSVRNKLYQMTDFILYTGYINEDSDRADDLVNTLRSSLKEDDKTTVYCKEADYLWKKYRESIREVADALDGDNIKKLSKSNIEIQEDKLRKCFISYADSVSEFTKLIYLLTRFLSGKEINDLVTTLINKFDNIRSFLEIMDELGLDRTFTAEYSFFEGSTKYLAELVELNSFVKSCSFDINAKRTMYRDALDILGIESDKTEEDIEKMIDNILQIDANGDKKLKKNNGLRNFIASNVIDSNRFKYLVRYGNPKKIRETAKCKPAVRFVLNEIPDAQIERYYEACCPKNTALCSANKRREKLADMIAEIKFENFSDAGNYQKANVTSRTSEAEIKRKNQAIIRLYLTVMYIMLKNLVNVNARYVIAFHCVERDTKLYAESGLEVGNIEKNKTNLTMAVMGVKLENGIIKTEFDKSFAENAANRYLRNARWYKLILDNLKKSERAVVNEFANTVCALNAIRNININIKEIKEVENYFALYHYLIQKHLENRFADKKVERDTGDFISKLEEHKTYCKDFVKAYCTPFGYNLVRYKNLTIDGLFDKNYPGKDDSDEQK
# measurement_description: crRNA (strand 1, pre-loaded); Mg2+; 40 mM Tris-HCl pH 7.5, 150 mM NaCl, 6 mM MgCl2, 1 mM DTT, 0.1% Tween-20, 0.2 mg/ml BSA; 25 C; 10 min per concentration, then washed
# test_context: tags: His6-TwinStrep-SUMO cleaved; N-terminal SNAP kept (SNAP-Surface 488); label: 3' end held by stalled T7 RNA polymerase
pKd: −log10 of the molar value.

binder	pKd
target 1 insG 3' of 6,insC 3' of 5 (mixed) RNA 1: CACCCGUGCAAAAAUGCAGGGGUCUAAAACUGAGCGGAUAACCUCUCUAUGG RNA 2: GGGAAUGGAUCCACAUCUACGAAUUCGUACCAUAGAGAGGUUAUCCGGCCUCACCGAGAUCGGAAGAGCACACGU	7.86
target 1 G12U,C22A (mixed) RNA 1: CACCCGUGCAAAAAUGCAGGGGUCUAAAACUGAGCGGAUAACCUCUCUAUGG RNA 2: GGGAAUGGAUCCACAUCUACGAAUUCGUAACAUAGAGAGUUUAUCCGCUCACCGAGAUCGGAAGAGCACACGU	7.71
target 2 MT 5'PFS CUC 3'PFS AUG (mixed) RNA 1: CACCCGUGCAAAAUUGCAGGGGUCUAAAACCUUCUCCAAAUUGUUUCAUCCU RNA 2: GGGAAUGGAUCCACAUCUACGAAUUCCUCAGGAUGAAACAAUUUGGAGAAGAUGAGAUCGGAAGAGCACACGU	8.76
target 3 insU 3' of 6,insU 3' of 5 (mixed) RNA 1: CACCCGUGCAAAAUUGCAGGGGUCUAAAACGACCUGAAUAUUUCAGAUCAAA RNA 2: GGGAAUGGAUCCACAUCUACGAAUUCGUUUUUGAUCUGAAAUAUUCUAUGGUCUGCAGAUCGGAAGAGCACACGU	8.10

Origin of values: paper PMC10786891
